List of IC50 values.
# MEASUREMENT TARGET: human C5aR(CD88) (Homo sapiens)
# Construct: expressed in transfected cells; host or cells: rat basophilic leukemia cells (RBL)
# Sequence (P21730 1-350): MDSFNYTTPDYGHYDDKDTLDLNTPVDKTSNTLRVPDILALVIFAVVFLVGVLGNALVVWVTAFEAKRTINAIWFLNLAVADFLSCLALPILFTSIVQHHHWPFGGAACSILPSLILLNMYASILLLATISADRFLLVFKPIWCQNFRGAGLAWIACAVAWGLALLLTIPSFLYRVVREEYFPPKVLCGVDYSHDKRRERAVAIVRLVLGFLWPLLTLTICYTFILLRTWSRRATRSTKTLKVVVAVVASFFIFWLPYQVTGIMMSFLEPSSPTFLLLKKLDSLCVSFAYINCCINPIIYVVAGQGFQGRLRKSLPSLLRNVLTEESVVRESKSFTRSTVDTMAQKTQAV
# PROCEDURE SUMMARY: Determination of the IC50 value in an enzyme release assay (functional assay, antagonistic activity)
# Format: cell-based
# COND: antagonistic activity; IC50 group in enzyme release assay, RBL cells expressing human C5aR(CD88); read-out: activity (group)
Positions of bridges follow the written chain, without caps; N, C: chain ends. Non-standard residues stand in square brackets, D forms with d. Residues, ends and D or L forms follow the SMILES beside them. *: point of attachment. 2Nal = N[C@@H](Cc1ccc2ccccc2c1)C(=O)O; Bta = N[C@@H](Cc1csc2ccccc12)C(=O)O; Hyp = O=C(O)[C@@H]1C[C@@H](O)CN1; d(hLeu) = CC(C)CC[C@@H](N)C(=O)O; dCha = N[C@H](CC1CCCCC1)C(=O)O; Pip = O=C(O)[C@@H]1CCCCN1; Orn = NCCC[C@H](N)C(=O)O; Aze = O=C(O)[C@@H]1CCN1; Dab = NCC[C@H](N)C(=O)O; Nme = COCCNCC(=O)O; Acm = CC(=O)NC*

CC(=O)N[C@@H](Cc1ccccc1)C(=O)N[C@H]1CCCNC(=O)[C@H](Cc2ccccc2)NC(=O)[C@H](Cc2csc3ccccc23)NC(=O)[C@@H](CCC(C)C)NC(=O)[C@@H]2CCCCN2C1=O [Compound 185, Ac-Phe-[Orn-Pip-hle-Bta-Phe]] (Ac-F[Orn][Pip][d(hLeu)][Bta]F; lactam 2-C) = 50 to 200 nM

**Q:** Report IC50 for CC(=O)N[C@@H](Cc1ccccc1)C(=O)N[C@@H](CCN)C(=O)N1CC[C@H]1C(=O)N[C@H](CCC(C)C)C(=O)N[C@@H](Cc1csc2ccccc12)C(=O)N[C@@H](Cc1ccccc1)C(N)=O [Compound 214, Ac-Phe-Dab-Aze-hle-Bta-Phe-NH2] (Ac-F[Dab][Aze][d(hLeu)][Bta]F-NH2)
**A:** 20 to 50 nM

**Q:** Provide one value: measured IC50 of COCCN(CC(=O)N[C@H](CC1CCCCC1)C(=O)N[C@@H](Cc1csc2ccccc12)C(=O)N[C@@H](Cc1ccccc1)C(N)=O)C(=O)[C@H](CCCN)NC(=O)[C@H](Cc1ccccc1)NC(C)=O [Compound 238, Ac-Phe-Orn-G25-cha-Bta-Phe-NH2] (Ac-F[Orn][Nme][dCha][Bta]F-NH2)
**A:** 50 to 200 nM

**Q:** Quick one: give measured IC50 for N[C@@H](Cc1ccccc1)C(=O)N[C@H]1CCCNC(=O)[C@H](Cc2ccccc2)NC(=O)[C@H](Cc2c[nH]c3ccccc23)NC(=O)[C@@H](CC2CCCCC2)NC(=O)[C@@H]2C[C@@H](O)CN2C1=O [Compound 357, H-Phe-[Orn-Hyp-cha-Trp-Phe]] (H-F[Orn][Hyp][dCha]WF; lactam 2-C)
**A:** 20 to 50 nM

**Q:** Answer with the recorded IC50 for the compound listed here: CC(=O)NCSC[C@H](NC(=O)[C@H](Cc1ccccc1)NC(C)=O)C(=O)N1CCC[C@H]1C(=O)N[C@H](CC1CCCCC1)C(=O)N[C@@H](Cc1csc2ccccc12)C(=O)N[C@@H](Cc1ccccc1)C(N)=O [Compound 123, Ac-Phe-Cys(Acm)-Pro-cha-Bta-Phe-NH2] (Ac-FC(Acm)P[dCha][Bta]F-NH2)
**A:** 200 to 2000 nM

**Q:** Return IC50 (reported value) for this compound: CC(=O)N[C@@H](Cc1ccccc1)C(=O)N[C@H]1CCCNC(=O)[C@H](Cc2ccc3ccccc3c2)NC(=O)[C@H](Cc2c[nH]c3ccccc23)NC(=O)[C@@H](CC2CCCCC2)NC(=O)[C@@H]2CCCN2C1=O [Compound 37, Ac-Phe-[Orn-Pro-cha-Trp-2Ni]] (Ac-F[Orn]P[dCha]W[2Nal]; lactam 2-C)
**A:** 50 to 200 nM
